experimental.details: folding stability dG unfold from trypsin proteolysis; higher = more stable
Would you mind telling me the reported folding stability dG unfold of each entry?
// note: answer is a bare numeric in kcal/mol

The recorded folding stability dG unfold for SAGGSAGGSAGGLKDALENGYVMIDFEIYNPPNGEPIGEITIMVKVPKPEPDEDGNWQLVSAGGSAGGSAGG [r7_959_TrROS] is 1.34

Lookup result for SAGGSSMINLTITITVKDPSTGKVTTIPLNKKLTPEEIEELVKEIIEKIEKENPDKPIEVLKVEINSAGGSA [r2_59_JUSTAS] ; measured folding stability dG unfold: 3.4

The measured folding stability dG unfold associated with SAGGMYKVKIYFEDTKEEIEIEASAEEVLEAIKNGDLDALKKLFPGAKIVKIEVEKVEPEPEEEEEEESAGG [r13_629_TrROS_Hall] reads 3.33

In plain terms, SAGGSAGGSAGPIDPNSTRPVPADYVVIRIRGDEKPRYFVVHPEYAKEFAERHGAELYYESAGGSAGGSAGG [r17_109_TrMRF] has a documented folding stability dG unfold of 0.0223

* * *

experimental.details: folding stability dG unfold from chymotrypsin proteolysis; higher = more stable
Assign label 1 whenever folding stability dG unfold does not fall below 2 kcal/mol; assign label 0 whenever it does.

Does the reported folding stability dG unfold for SAGGSAGGSMRLTVEVSSLEEAEKLAEEIEERFDVEIVRVEVEETEEGGLRVTFDVKLHPDLGSAGGSAGGS [r12_577_TrMRF] fall at or above the 2 kcal/mol mark?
label 1

Determine whether measured folding stability dG unfold meets or exceeds 2 kcal/mol for SMIKIKVVEKKDGKYKIKIENKKTGKTFEFEFDTKEEAEEAEKNPGKTIYLSEEALKKLKKENITKVEKVSA [r9_390_TrROS_Hall]
label 0

Hello, I need to know if SAGGSATPEEIAKKFFENHPELEPVEVKLEKFKIPGLKIWVVKVEITLKFKDNSKKKIPVVAVFPVSAGGSA [r15_266_TrMRF] has measured folding stability dG unfold not below 2 kcal/mol. Thanks!
label 1

Does the sequence SAGGSGIEAAILEAVEKGLNPVELTFRLPEDGKLVVLKVEVLDVLDGGAIVKVEMEVYDPENPKKISAGGSA [r2_420_TrMRF] have recorded folding stability dG unfold that is 2 kcal/mol or more?
label 1

Could you tell me if the measured folding stability dG unfold of SAGGSEEEIKKKIEEIAKKRGTKIKSITIKKLPDGSLLATVTLEDNPNTTIEFKVEKNKVEITKINKSAGGS [r8_432_JUSTAS] reaches 2 kcal/mol or more?
label 1

Is folding stability dG unfold for SAGGSMKVEYDESTGVTTITLPDGSTITFPAEDTGLTVEASLEDDTLTITVKDPNNPVPLETRTIPSSSAGG [r13_938_JUSTAS] at or above 2 kcal/mol?
label 0

For this sequence, is measured folding stability dG unfold 2 kcal/mol or higher? SAGMVIVDPKTKKKITFDKESGEIYIEVDGKKKKIKLKPGEKVEIEIIEKDGKLIIKIKANGKIIEIEPSAG [r5_858_TrROS_Hall]
label 1

Test whether the sequence SAGGSAASVVEKTLSPDGTLFVTIKVDPEKKSVPFSITTPDGTPVTVTLPPNTTKTVRVPLGEAALSAGGSA [r15_336_JUSTAS] records folding stability dG unfold of 2 kcal/mol or higher.
label 0

Could you tell me if the measured folding stability dG unfold of SAGSETVLKTTTEPRTEPDSEVETTTEVYPDGKRITRTTTTYPNPGEGNPATPVTTTTTTVTELPPNELSAG [r5_224_JUSTAS] reaches 2 kcal/mol or more?
label 0

State whether the measured folding stability dG unfold reaches 2 kcal/mol, counting equality as reaching it, for SAGGSAGGKKYRVVVYNPETGEWVEVEEVEFDPETGEVRVRLPGSGKEVTIPKDYPVYLNPELDSAGGSAGG [r6_884_TrMRF]
label 1

Is it the case that SAGGSAKVIVEELPDGSIKIYFPETGAVIVLNPETGEAVVFVNPKKKNNEPPSLDDVLKAAKEALGSAGGSA [r15_735_TrMRF] has folding stability dG unfold reaching or exceeding 2 kcal/mol?
label 0

Reported folding stability dG unfold at or above 2 kcal/mol? SAGGSAGGSAGEPKLILVEVEGYPDPESNLVYVEFPNGDIATFAVDSAAPDQPVLVLVNPSAGGSAGGSAGG [r11_621_TrMRF]
label 0

Please check the record SAGGSASMGVSVAAIAEALDAARPAGAPPLVYVKLPNGEVVRVSPDESLTSISPEGEVEIEIRFLPSAGGSA [r15_50_JUSTAS] and state if its folding stability dG unfold is at or above 2 kcal/mol.
label 0

Evaluate SAGGMKIEIVEIEREGNTITIKAKITLPDGTVIEITAKAEFVDGELKLEIKVEVRKLPPPPPPPPEESAGGS [r8_458_TrROS_Hall] : folding stability dG unfold at minimum 2 kcal/mol?
label 1
